System: 293T cells
PROTOCOL DETAILS: Cell viability assay (CCK-8) with LNP preparations of Fluc-mRNA
Assay type: cell-based
MEASUREMENT CONDITIONS: LNP with 1.5 μg Fluc-mRNA, 24 hours, CCK-8
Description: Cell recovery and passage: 293T cells were recovered and cultured in culture dishes. The cells were passaged until the required number of cells was obtained. Seeding plates: The cells in culture dishes were digested and counted, then seeded in a 96-well plate at 10,000 cells per well and seeded in a 12-well plate at 150,000 cells per well. The cells were cultured overnight until cell adhesion. […]
PROPERTY NAME: Cell viability (%)
Form entry: value (%) — number only.

As a guide, the following entries are already answered.
CCCCCCCCCCOC(=O)CCCN(CCCCCC(=O)OCC(CCCCCCCC)CCCCCCCC)CCNC(CO)(CO)CCc1ccc(CCCCCCCC)cc1 [YK-906] | 63
CCCCCCCCCCC(CCCCCCCCCC)CCCOC(=O)CCCCCNC(CO)(CO)CCc1ccc(CCCCCCCC)cc1 [YK-901] | 58
CCCCCCCCC(CCCCCC)COC(=O)CCCCCN(CCCCCC(=O)OCC(CCCCCC)CCCCCCCC)CCN(CCO)c1ccccc1 (stereo not shown) [Compound 7, reference compound] | 73

We now examine a further molecule.
stdin: Item under review: CCCCCCCCCCC(CCCCCCCCCC)CCCOC(=O)CCCNC(CO)(CO)CCc1ccc(CCCCCCCC)cc1 [YK-902] . Reported Cell viability?
stdout: 36
